The reported measurements were obtained from patent US20180327367A1.

# Tested on: Methicillin Resistant Staphylococcus aureus strain USA 300, NRS384
# RUN DESCRIPTION: Minimum inhibitory concentration, broth micro-dilution (CLSI), S. aureus
# Format: cell-based
# CONDITION DESCRIPTION: Staphylococcus aureus, MRSA / NRS 384 / USA300, 22 h, MRSA USA 300 NRS384; 35° C., 22 hours; read-out: MIC (μg/mL) S. aureus
Here, each record is paired with measured MIC data.

SMILES ENTRY: CCCCCCCCCCCCCC(=O)N[C@@H](CCCCN)C(=O)N(C)[C@@H]1C(=O)N[C@@H](C)C(=O)N[C@H](C(=O)N[C@@H](C)C#N)Cc2ccc(OCCN)c(c2)-c2cc1ccc2OCCO
OPERATOR: <
MIC / µg/mL: 0.063
--
SMILES ENTRY: CCCCCCCCCCNCCC(=O)N(C)[C@@H]1C(=O)N[C@@H](C)C(=O)N[C@H](C(=O)NCC#N)Cc2ccc(O)c(c2)-c2cc1ccc2OCCN
OPERATOR: =
MIC / µg/mL: 0.13
--
SMILES ENTRY: CCCCc1ccc(C(=O)N(C)[C@@H](CCN)C(=O)N(C)[C@@H]2C(=O)N[C@@H](C)C(=O)N[C@H](C(=O)NCC#N)Cc3ccc(OCCN)c(c3)-c3cc2ccc3OCCN)c(C)c1
OPERATOR: =
MIC / µg/mL: 3
--
SMILES ENTRY: Cc1nc(C#CC2CCCCC2)ncc1C(=O)N[C@@H](CCN)C(=O)N(C)[C@@H]1C(=O)N[C@@H](C)C(=O)N[C@H](C(=O)NCC#N)Cc2ccc(OCCN)c(c2)-c2cc1ccc2OCCN
OPERATOR: =
MIC / µg/mL: 0.25
--
SMILES ENTRY: CCCCCCOc1ccc(C(=O)N[C@@H](CCN)C(=O)N(C)[C@@H]2C(=O)N[C@@H](C)C(=O)N[C@H](C(=O)NCC#N)Cc3ccc(OCCN)c(c3)-c3cc2ccc3OCCN)c(Cl)c1
OPERATOR: =
MIC / µg/mL: 0.047
--
SMILES ENTRY: CCCCCCCOc1cc(F)c(C(=O)N[C@@H](CCN)C(=O)N(C)[C@@H]2C(=O)N[C@@H](C)C(=O)N[C@H](C(=O)NCC#N)Cc3ccc(OCCN)c(c3)-c3cc2ccc3OCCN)c(Cl)c1
OPERATOR: =
MIC / µg/mL: 0.063
--
SMILES ENTRY: COc1ccc(-c2ccc(C(=O)N[C@@H](CCCCN)C(=O)N(C)[C@@H]3C(=O)N[C@@H](C)C(=O)N[C@H](C(=O)NCC#N)Cc4ccc(OCCN)c(c4)-c4cc3ccc4OCCN)cc2)cc1OC
OPERATOR: =
MIC / µg/mL: 2
